- test_description: Stability of DMDAPatA in RPMI, FBS and human plasma
- Assay type: in vitro ADME
- run_conditions: Fetal Bovine Serum, 10 uM; read-out: Half-life time (converted)
assay_readout: half-life at 10 µM (h)

INSERT INTO assay_data (query_smiles, unit_label, meas_value) VALUES
  ('CC(/C=C/C(C)=C/[C@@H]1Cc2nc(cs2)CCCCC(=O)O[C@@H](C)C/C(C)=C/C=C\C(=O)O1)=C\CN(C)C', 'h', 11.5);

###

- test_description: Stability of DMDAPatA in RPMI, FBS and human plasma
- Format: in vitro ADME
- run_conditions: Human Plasma, 1 uM; read-out: Half-life time (converted)
assay_readout: half-life at 1 µM (h)

INSERT INTO measurements (query_smiles, unit_label, meas_value) VALUES
  ('CC(/C=C/C(C)=C/[C@@H]1Cc2nc(cs2)CCCCC(=O)O[C@@H](C)C/C(C)=C/C=C\C(=O)O1)=C\CN(C)C', 'h', 18);

###

- test_description: Stability of DMDAPatA in RPMI, FBS and human plasma
- Format: in vitro ADME
- run_conditions: RPMI medium without serum; Pure RPMI, 1 uM; read-out: Half-life time (converted)
assay_readout: half-life at 1 µM (min)

INSERT INTO assay_data (compound, meas_value) VALUES
  ('CC(/C=C/C(C)=C/[C@@H]1Cc2nc(cs2)CCCCC(=O)O[C@@H](C)C/C(C)=C/C=C\C(=O)O1)=C\CN(C)C [DMDAPatA, Des-methyl, des-amino Pateamine A]', 180);

###

- test_description: Stability of DMDAPatA in RPMI, FBS and human plasma
- Assay type: in vitro ADME
- run_conditions: Fetal Bovine Serum, 1 uM; read-out: Half-life time (converted)
assay_readout: half-life at 1 µM (h)

INSERT INTO assay_data (query_smiles, meas_value) VALUES
  ('CC(/C=C/C(C)=C/[C@@H]1Cc2nc(cs2)CCCCC(=O)O[C@@H](C)C/C(C)=C/C=C\C(=O)O1)=C\CN(C)C', 16);

###

- Test system: primary CLL cells
- test_description: Toxicity/apoptosis in primary CLL cells, annexin V/PI double staining and flow cytometry
- Format: cell-based, human
- run_conditions: Homo sapiens, CLL cell; primary CLL cells, media with 10% patient plasma, 24 incubation; read-out: IC50 (μM) 10% Plasma
assay_readout: IC50 (µM)

INSERT INTO measurements (query_smiles, assay_readout, meas_value) VALUES
  ('CC(/C=C/C(C)=C/[C@@H]1Cc2nc(cs2)[C@@H](C)C[C@@H](N)CC(=O)O[C@@H](C)C/C(C)=C/C=C\C(=O)O1)=C\CN(C)C', 'IC50', 0.2),
  ('CC(/C=C/C(C)=C/[C@@H]1Cc2nc(cs2)CCCCC(=O)O[C@@H](C)C/C(C)=C/C=C\C(=O)O1)=C\CN(C)C', 'IC50', 6.42);

###

- test_description: Stability of DMDAPatA in RPMI, FBS and human plasma
- Format: in vitro ADME
- run_conditions: RPMI medium without serum; Pure RPMI, 10 uM; read-out: Half-life time (converted)
assay_readout: half-life at 10 µM (h)

INSERT INTO measurements (query_smiles, assay_readout, unit_label, meas_value) VALUES
  ('CC(/C=C/C(C)=C/[C@@H]1Cc2nc(cs2)CCCCC(=O)O[C@@H](C)C/C(C)=C/C=C\C(=O)O1)=C\CN(C)C', 'half-life at 10 µM', 'h', 3.2);

###

- test_description: Stability of DMDAPatA in RPMI, FBS and human plasma
- Assay type: in vitro ADME
- run_conditions: Human Plasma, 10 uM; read-out: Half-life time (converted)
assay_readout: half-life at 10 µM (h)

INSERT INTO assay_data (query_smiles, unit_label, meas_value) VALUES
  ('CC(/C=C/C(C)=C/[C@@H]1Cc2nc(cs2)CCCCC(=O)O[C@@H](C)C/C(C)=C/C=C\C(=O)O1)=C\CN(C)C', 'h', 14);
